Where do these numbers come from? They come from patent US20200317776A1.

TEST SYSTEM: T1, cynomolgus monkey TREM2 Fc fusion (entire TREM2 ECD; only one Fc arm fused to TREM2) (cynomolgus monkey, UniProt Q9NZC2 19-174 (human entry))
T1 construct: also called cyno TREM2-Fc
T1 chain: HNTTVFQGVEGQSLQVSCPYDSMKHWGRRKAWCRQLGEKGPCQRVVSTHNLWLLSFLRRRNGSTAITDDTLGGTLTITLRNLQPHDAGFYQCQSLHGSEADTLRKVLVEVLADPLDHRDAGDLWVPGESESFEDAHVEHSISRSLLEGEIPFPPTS
TEST PROTOCOL: BLI, Fab, monovalent
Listing of entries alongside the reported Kd.
Write the value in nM as a bare number.

AL2p-h77 (antibody, human IgG1, V domains shown, humanized, human IgG1; Fab and IgG formats under one id; also called A2p-h77) VH: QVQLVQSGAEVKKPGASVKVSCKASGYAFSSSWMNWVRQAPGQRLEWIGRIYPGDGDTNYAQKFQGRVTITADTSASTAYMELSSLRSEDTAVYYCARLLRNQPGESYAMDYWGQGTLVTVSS VL: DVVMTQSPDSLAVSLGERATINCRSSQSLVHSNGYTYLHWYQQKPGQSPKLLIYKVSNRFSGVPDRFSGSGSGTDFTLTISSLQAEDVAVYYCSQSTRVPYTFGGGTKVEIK	184

Which Kd value belongs to AL2p-18 (antibody, V domains shown, Fab and IgG formats under one id) VH: QVQLVQSGAEVKKPGSSVKVSCKASGYAFSSHWMNWVRQAPGQGLEWMGRIYPGDGDTNYAQKWQGRVTITADESTSTAYMELSSLRSEDTAVYYCARLLRNQPGSSYAMDYWGQGTLVTVSS VL: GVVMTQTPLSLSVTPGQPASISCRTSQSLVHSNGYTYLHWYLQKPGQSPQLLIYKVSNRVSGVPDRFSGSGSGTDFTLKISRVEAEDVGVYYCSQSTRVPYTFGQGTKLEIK ?
2.73

Which Kd value belongs to AL2p-41 (antibody, IgG1, V domains shown, Fab and IgG formats under one id) VH: QVQLVQSGAEVKKPGSSVKVSCKASGYAFSSHWMNWVRQAPGQGLEWMGRIYPGEGDTNYAQKFRGRVTITADESTSTAYMELSSLRSEDTAVYYCARLLRNQPGASYAMDYWGQGTLVTVSS VL: GVVMTQTPLSLSVTPGQPASISCRSSRSLVHSNQYTYLHWYLQKPGQSPQLLIYKVSNRRSGVPDRFSGSGSGTDFTLKISRVEAEDVGVYYCSQSTRVPYTFGQGTKLEIK ?
0.352

Which Kd value belongs to AL2p-24 (antibody, V domains shown, Fab and IgG formats under one id) VH: QVQLVQSGAEVKKPGSSVKVSCKASGYAFSSHWMNWVRQAPGQGLEWMGRIYPGGGDTNYAQKFQGRVTITADESTSTAYMELSSLRSEDTAVYYCARLLRNQPGESYAMDYWGQGTLVTVSS VL: GVVMTQTPLSLSVTPGQPASISCRSSRSLVHSNGYTYLHWYLQKPGQSPQLLIYKVSNRFSGVPDRFSGSGSGTDFTLKISRVEAEDVGVYYCSQSTRVPYTFGQGTKLEIK ?
1.63

Which Kd value belongs to AL2p-27 (antibody, V domains shown, Fab and IgG formats under one id) VH: QVQLVQSGAEVKKPGSSVKVSCKASGYAFSSHWMNWVRQAPGQGLEWMGRIYPGQGDTNYAQKFQGRVTITADESTSTAYMELSSLRSEDTAVYYCARLLRNQPGESYAMDYWGQGTLVTVSS VL: GVVMTQTPLSLSVTPGQPASISCRSSRSLVHSNGYTYLHWYLQKPGQSPQLLIYKVSNRVSGVPDRFSGSGSGTDFTLKISRVEAEDVGVYYCSQSTRVPYTFGQGTKLEIK ?
1.82

Which Kd value belongs to AL2p-28 (antibody, V domains shown, Fab and IgG formats under one id) VH: QVQLVQSGAEVKKPGSSVKVSCKASGYAFSSHWMNWVRQAPGQGLEWMGRIYPGVGDTNYAQKFQGRVTITADESTSTAYMELSSLRSEDTAVYYCARLLRNQPGESYAMDYWGQGTLVTVSS VL: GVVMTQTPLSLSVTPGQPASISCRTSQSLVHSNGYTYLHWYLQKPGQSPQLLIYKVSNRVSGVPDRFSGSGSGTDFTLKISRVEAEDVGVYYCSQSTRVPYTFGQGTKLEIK ?
7.91

Which Kd value belongs to AL2p-35 (antibody, V domains shown, Fab and IgG formats under one id) VH: QVQLVQSGAEVKKPGASVKVSCKASGYAFWSSWMNWVRQAPGQRLEWIGRIYPGDGDTNYAQKFQGRVTITADTSASTAYMELSSLRSEDTAVYYCARLLRNQPGESYAHDYWGQGTLVTVSS VL: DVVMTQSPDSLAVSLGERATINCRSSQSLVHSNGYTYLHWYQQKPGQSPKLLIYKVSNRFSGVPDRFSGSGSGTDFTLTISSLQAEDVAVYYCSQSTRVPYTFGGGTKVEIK ?
24.6
